Please go through the items and note down their melting point.

Give one value of melting point per listed compound.
1. COC(=O)c1c(O)c2cc(Cl)ccc2n1-c1ccccc1
2. CCOC(=O)C1=C(C)N=C(N)C(Cc2ccccc2)(C(=O)OCC)C1c1cccc([N+](=O)[O-])c1 (stereo not given)
3. Nc1ccc(C#Cc2cnn3c(C4CC4)cc(-c4ccc(C(F)(F)F)cc4)nc23)cn1
4. CC1CC(c2c[nH]c(-c3ccc(F)cc3)c2-c2ccncc2)CCN1 (stereo not given)
5. CC(C)(C)OC(=O)C1=Cc2cc(OCc3ccccc3)ccc2OC1
6. O=c1cc(SCc2ccccc2)cco1

170 to 173 °C
208 °C
228 to 231 °C
198 to 205 °C
64 to 67 °C
105 to 106 °C
